Target: GDP-loaded KRAS-G12C (Homo sapiens, UniProt P01116, G12C)
Sequence (P01116 1-188 isoform P01116-2 G12C): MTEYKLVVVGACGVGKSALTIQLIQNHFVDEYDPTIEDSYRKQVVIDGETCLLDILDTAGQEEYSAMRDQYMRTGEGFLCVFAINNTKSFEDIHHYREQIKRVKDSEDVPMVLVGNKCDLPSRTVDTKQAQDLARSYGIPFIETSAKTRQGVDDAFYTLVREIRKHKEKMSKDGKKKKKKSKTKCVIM
Experiment: KRAS (GDP) biochemical TR-FRET probe displacement assay, G12C
Details: 2 hours at room temperature
Quantity measured: IC50 (nM)
Hi! Could you send only the number? It should be in nM, unit omitted.

Prompt line: Fill in the recorded IC50 for this compound, with GDP-loaded KRAS-G12C (Homo sapiens, UniProt P01116, G12C) as test system: "C#Cc1c(F)ccc2cc(O)cc(-c3ncc4c(N5CC6(F)CCC(F)(C5)N6)nc(OC[C@@]56CCCN5[C@H](COc5cc(C(F)(F)F)cnn5)CC6)nc4c3F)c12"
Response line: 0.27

Prompt line: Now this one: "C#Cc1c(F)ccc2cc(O)cc(-c3ncc4c(N5CC6(F)CCC(F)(C5)N6)nc(OC[C@@]56CCCN5[C@H](COc5cc(C(F)(F)F)ncn5)CC6)nc4c3F)c12"
Response line: 0.4

Prompt line: Now this one: "Nc1nc2c(-c3c(Cl)cc4c(N5CC6(F)CCC(F)(C5)N6)nc(OC[C@@]56CCCN5C[C@H](F)C6)nc4c3F)ccc(F)c2s1"
Response line: 42.5

Prompt line: Now this one: "C#Cc1c(F)ccc2cc(N)cc(-c3c(F)cc4c(N5CC6(F)CCC(F)(C5)N6)nc(OCC56CCCN5CCC6)nc4c3F)c12"
Response line: 4.22

----------
System: cellular pERK in NCI-H441 (KRAS-G12V) cell-line
Assay: Cell based pERK assay, NCI-H441
Conditions: Homo sapiens; NCI-H441 (KRAS-G12V) cells, 2 hours compound incubation, HTRF Phospho-ERK1/2
Please go through the items and note down their pEC50.
Lab note: report pEC50 as minus log10 of the concentration in molar units, number only.

Prompt line: Entry "C#Cc1c(F)ccc2cc(O)cc(-c3ncc4c(N5CC6(F)CCC(F)(C5)N6)nc(OC[C@@]56CCCN5[C@H](COc5cc(C(F)(F)F)ncn5)CC6)nc4c3F)c12" has what pEC50?
Response line: 8.68

Prompt line: Now this one: "C#Cc1c(F)ccc2cc(N)cc(-c3ncc4c(N5CC6(F)CCC(F)(C5)N6)nc(OC[C@@]56CCCN5[C@H](COc5cc(C(F)(F)F)ncn5)CC6)nc4c3F)c12"
Response line: 7.57

Prompt line: Now this one: "C#Cc1c(F)ccc2cc(N)cc(-c3ncc4c(N5CC6(F)CCC(F)(C5)N6)nc(OCC56CCCN5CCC6)nc4c3F)c12"
Response line: 6.56

----------
Target: GDP-loaded KRAS-G12V (Homo sapiens, UniProt P01116, G12V)
Sequence (P01116 1-188 isoform P01116-2 G12V): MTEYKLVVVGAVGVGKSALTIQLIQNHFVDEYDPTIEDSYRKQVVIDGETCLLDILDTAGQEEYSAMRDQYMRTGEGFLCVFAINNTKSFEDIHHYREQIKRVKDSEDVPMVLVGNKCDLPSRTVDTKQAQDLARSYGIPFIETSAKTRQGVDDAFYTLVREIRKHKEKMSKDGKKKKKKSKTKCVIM
Experiment: KRAS (GDP) biochemical TR-FRET probe displacement assay, G12V
Details: 2 hours at room temperature
Quantity measured: pIC50
Lab note: report pIC50 as minus log10 of the concentration in molar units, number only.

Prompt line: Entry "C#Cc1c(F)ccc2cc(N)cc(-c3ncc4c(N5CC6(F)CCC(F)(C5)N6)nc(OC[C@@]56CCCN5C[C@H](F)C6)nc4c3F)c12" has what pIC50?
Response line: 8.12

Prompt line: Now this one: "C#Cc1c(F)ccc2cccc(-c3ncc4c(N5CC6(F)CCC(F)(C5)N6)nc(OC[C@@]56CCCN5C[C@H](F)C6)nc4c3F)c12"
Response line: 7.08

Prompt line: Now this one: "C#Cc1c(F)ccc2cc(O)cc(-c3ncc4c(N5CC6(F)CCC(F)(C5)N6)nc(OC[C@@]56CCCN5[C@H](COc5cc(C(F)(F)F)cnn5)CC6)nc4c3F)c12"
Response line: 9.62

Prompt line: Now this one: N#Cc1c(N)sc2c(F)ccc(-c3c(Cl)cc4c(N5CC6(F)CCC(F)(C5)N6)nc(OC[C@@]56CCCN5C[C@H](F)C6)nc4c3F)c12 (single isomer, unassigned) [Example 8-1]
Response line: 9.00

Prompt line: Now this one: "C#Cc1c(F)ccc2cc(N)cc(-c3ncc4c(N5CC6(F)CCC(F)(C5)N6)nc(OCC56CCCN5CCC6)nc4c3F)c12"
Response line: 7.58

Prompt line: Now this one: "C#Cc1c(F)ccc2cc(O)cc(-c3ncc4c(N5CC6(F)CCC(F)(C5)N6)nc(OC[C@@H]5CC[C@]6(COc7cc(C(F)(F)F)ncn7)CCCN56)nc4c3F)c12"
Response line: 7.65

Prompt line: Now this one: N#Cc1c(N)sc2c(F)ccc(-c3c(Cl)cc4c(N5CC6(F)CCC(F)(C5)N6)nc(OC[C@@]56CCCN5C[C@H](F)C6)nc4c3F)c12 (single isomer, unassigned) [Example 8-2]
Response line: 7.30

Prompt line: Now this one: "C#Cc1c(F)ccc2cc(N)cc(-c3c(F)cc4c(N5CC6(F)CCC(F)(C5)N6)nc(OCC56CCCN5CCC6)nc4c3F)c12"
Response line: 8.38

Prompt line: Now this one: "C#Cc1c(F)ccc2cc(N)cc(-c3ncc4c(N5CC6(F)CCC(F)(C5)N6)nc(OC[C@@]56CCCN5[C@H](COc5cc(C(F)(F)F)ncn5)CC6)nc4c3F)c12"
Response line: 8.36

Prompt line: Now this one: "C#Cc1c(F)ccc2cc(O)cc(-c3ncc4c(N5CC6(F)CCC(F)(C5)N6)nc(OC[C@@]56CCCN5[C@H](COc5cc(C(F)(F)F)ncn5)CC6)nc4c3F)c12"
Response line: 9.38

Prompt line: Now this one: "Cc1c(F)c(N)cc(-c2ncc3c(N4CC5(F)CCC(F)(C4)N5)nc(OC[C@@]45CCCN4C[C@H](F)C5)nc3c2F)c1C(F)(F)F"
Response line: 7.67

Prompt line: Now this one: "C#Cc1c(F)c(F)cc2cc(O)cc(-c3c(F)cc4c(N5CC6(F)CCC(F)(C5)N6)nc(OCC56CCCN5CCC6)nc4c3F)c12"
Response line: 9.70

Prompt line: Now this one: N#Cc1c(N)sc2c(F)ccc(-c3c(Cl)cc4c(N5CC6(F)CCC(F)(C5)N6)nc(OC[C@@]56CCCN5C[C@H](F)C6)nc4c3F)c12 [Example 7-3]
Response line: 8.29

Prompt line: Now this one: "C#Cc1c(F)ccc2cc(O)cc(-c3c(Cl)cc4c(N5CC6(F)CCC(F)(C5)N6)nc(OC[C@@]56CCCN5C[C@H](F)C6)nc4c3F)c12"
Response line: 8.01

Prompt line: Now this one: "C#Cc1c(F)ccc2cc(O)cc(-c3ncc4c(N5C[C@]6(F)CC[C@](F)(C5)N6)nc(OC[C@@]56CCCN5C[C@H](F)C6)nc4c3F)c12"
Response line: 9.96
